System: A2780 cells
Assay: In-vitro cell proliferation assay (SRB, 72 hours)
Assay type: cell-based
Conditions: Homo sapiens, sulforhodamine B (SRB) assay
Readout label: pIC50
When answering, recall that pIC50 equals minus log10 of the concentration in mol/L, and write that number alone.

Looking for the measured pIC50 of O=C(NCCCCC1CCN(C(=O)c2cccc(Cl)c2Cl)CC1)c1cc2ccncc2s1 , can you help?
8.17

Looking for the measured pIC50 of O=C(NCCCCC1CCN(C(=O)c2ccccn2)CC1)c1ccc2nccn2c1 , can you help?
7.87

Looking for the measured pIC50 of O=C(NCCCCC1CCN(C(=O)c2cccc(F)c2F)CC1)c1cc2cnccc2[nH]1 , can you help?
8.47

Looking for the measured pIC50 of CC(C)c1ccc(C(=O)N2CCC(CCCCNC(=O)c3cc4cnccc4[nH]3)CC2)nc1 , can you help?
7.85

Looking for the measured pIC50 of O=C(NCCCCC1CCN(S(=O)(=O)c2cccnc2)CC1)c1cc2cnccc2[nH]1 , can you help?
7.86

Looking for the measured pIC50 of O=C(NCCCCC1CCN(C(=O)c2cccnc2)CC1)c1cc2ccncc2s1 , can you help?
7.56

Looking for the measured pIC50 of COc1ccc(C(=O)N2CCC(CCCCNC(=O)c3cc4ccncc4s3)CC2)cc1 , can you help?
7.10

Looking for the measured pIC50 of CCOc1ncccc1C(=O)N1CCC(CCCCNC(=O)c2ccc3nccn3c2)CC1 , can you help?
9.30

Looking for the measured pIC50 of COc1ccccc1C(=O)N1CCC(CCCCNC(=O)c2cc3ccncc3s2)CC1 , can you help?
8.48

Looking for the measured pIC50 of O=C(NCCCCC1CCN(C(=O)c2ccc(N3CCOCC3)nc2)CC1)c1ccc2nccn2c1 , can you help?
8.23

Looking for the measured pIC50 of O=C(NCCCCC1CCN(C(=O)c2ccc(C(F)(F)F)nc2)CC1)c1ccc2nccn2c1 , can you help?
7.03

Looking for the measured pIC50 of COc1cccc(C(=O)N2CCC(CCCCNC(=O)c3ccc4nccn4c3)CC2)c1 , can you help?
8.18

Looking for the measured pIC50 of O=C(NCCCCC1CCN(C(=O)c2cc(Cl)ccc2Cl)CC1)c1cc2cnccc2[nH]1 , can you help?
8.21

Looking for the measured pIC50 of COc1ccc(C(=O)N2CCC(CCCCNC(=O)c3cc4cnccc4[nH]3)CC2)cc1F , can you help?
7.68

Looking for the measured pIC50 of O=C(NCCCCC1CCN(C(=O)c2ccc3cc[nH]c3c2)CC1)c1ccc2nccn2c1 , can you help?
7.83

Looking for the measured pIC50 of O=C(NCCCCC1CCN(C(=O)c2ccc(C(F)(F)F)cn2)CC1)c1cc2cnccc2[nH]1 , can you help?
7.22
